target: NUDT7 (Homo sapiens); construct: residues 14-235, E. coli, pNIC28-Bsa4, N-terminal His6 tag removed by TEV, construct 26672 Da; parameters: Intact protein LC/MS covalent labelling, fragments in pools of five, 200 uM each, 4 °C; details: 24 h, 4 °C, pool of five; 200 µM; covalent
Sequence (P0C024 14-235): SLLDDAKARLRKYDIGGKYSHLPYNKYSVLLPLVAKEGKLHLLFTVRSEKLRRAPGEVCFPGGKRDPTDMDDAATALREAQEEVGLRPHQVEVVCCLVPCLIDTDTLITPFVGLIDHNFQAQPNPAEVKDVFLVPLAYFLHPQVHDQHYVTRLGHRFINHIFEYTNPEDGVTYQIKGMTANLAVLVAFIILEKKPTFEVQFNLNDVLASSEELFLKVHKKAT
Overview of recorded NUDT7 for various molecules
Answer with a number only.

// known answers, use as guide
| molecule | tested-system | NUDT7 |
| --- | --- | --- |
| CN(Cc1cc(C#N)ccc1F)C(=O)CCl | NUDT7 (Homo sapiens) | 0.07 |
| O=C(CCl)N1CCN(C(=O)C2CC2)CC1 | NUDT7 (Homo sapiens) | 0.07 |
| COCC(=O)NNC(=O)CCl | NUDT7 (Homo sapiens) | 0 |
| C=CC(=O)N1CCC(NC(=O)c2cc(C)on2)CC1 | NUDT7 (Homo sapiens) | 0 |
| O=C(CCl)N1CCN(S(=O)(=O)c2cccc(F)c2)CC1 | NUDT7 (Homo sapiens) | 0.13 |
| O=C(CCl)NC1CCCCNC1=O (centres unmarked) | NUDT7 (Homo sapiens) | 0 |
| O=C(CCl)Nc1ccc(F)cc1F | NUDT7 (Homo sapiens) | 0 |
| Cc1sc(NC(=O)CCl)c(C)c1C | NUDT7 (Homo sapiens) | 0 |
| C=CC(=O)Nc1ccc(N(C)C)cc1 | NUDT7 (Homo sapiens) | 0 |
| C=CC(=O)N1CCC(C(=O)N2CCN(C(C)=O)CC2)CC1 | NUDT7 (Homo sapiens) | 0 |

Now look at this one.
Inquiry: Write down the reported NUDT7 of `NS(=O)(=O)c1ccccc1NC(=O)CCl` , test system: NUDT7 (Homo sapiens).
Reply text: 0.29

Just for reference, paper PMC6556873 is where these values come from.
